- test: Anti-cancer activity, A172
- Assay type: cell-based, human
- settings: A172, glioblastoma; read-out: LC50 (the source's name)
Where no end group is shown, it is not given here.
reported_endpoint: CC50

[[record]]
sequence_input = "KNWKGIAGMAKKLLGKNWKLM [mast21, reference compound]"
observed_value = "> 100 µM"

[[record]]
sequence_input = "RNWRGIAGMARRLLGRNWRLM [mast21R]"
observed_value = "50 µM"


* * *

Reported values of CC50 for individual entries
- test: Anti-cancer activity, PC-3
- Format: cell-based, human
- settings: PC-3, prostate cancer; read-out: LC50 (the source's name)
Where no end group is shown, it is not given here.
reported_endpoint: CC50 (µM)

[[record]]
sequence_input = "RNWRGIAGMARRLLGRNWRLM [mast21R]"
reported_endpoint = "CC50"
observed_value = 60

[[record]]
sequence_input = "KNWKGIAGMAKKLLGKNWKLM [mast21, reference compound]"
reported_endpoint = "CC50"
observed_value = 100


* * *

- Tested on: S. aureus IFO13276
- settings: IFO13276, 18 h
Where no end group is shown, it is not given here.
reported_endpoint: MIC (µM)

[[record]]
substance = "INWKGIAAMAKKLL [mastoparanX, INWKGIAAMAKKLL, reference compound]"
unit_info = "µM"
value_operator = "="
observed_value = 1.56

[[record]]
substance = "KVLKVLKVL [KVL3, KVLKVLKVL]"
unit_info = "µM"
value_operator = ">"
observed_value = 200

[[record]]
substance = "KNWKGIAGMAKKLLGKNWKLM [mast21, reference compound]"
unit_info = "µM"
value_operator = "="
observed_value = 25

[[record]]
substance = "ALRALRALRALRALR [ALR5, ALRALRALRALRALR]"
unit_info = "µM"
value_operator = "="
observed_value = 400

[[record]]
substance = "KVLINWKGIAAMAKKII [KVL-mastX, KVL INWKGIAAMAKKII]"
unit_info = "µM"
value_operator = ">"
observed_value = 200

[[record]]
substance = "RVGINWKGIAAMAKKII [RVG-mastX, RVG INWKGIAAMAKKII]"
unit_info = "µM"
value_operator = ">"
observed_value = 200

[[record]]
substance = "KVLKVLKVLKVLKVL [KVL5, KVLKVLKVLKVLKVL]"
unit_info = "µM"
value_operator = "="
observed_value = 100

[[record]]
substance = "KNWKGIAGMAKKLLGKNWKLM-NH2 [mast21N]"
unit_info = "µM"
value_operator = "="
observed_value = 12.5

[[record]]
substance = "KNRKGIAGMAKKLLGNKWKLM [mastWR]"
unit_info = "µM"
value_operator = "="
observed_value = 50

[[record]]
substance = "KVLALRL [KVL+, KVL ALRL]"
unit_info = "µM"
value_operator = ">"
observed_value = 200

[[record]]
substance = "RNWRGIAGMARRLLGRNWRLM [mast21R]"
unit_info = "µM"
value_operator = "="
observed_value = 6.25


* * *

- test: Anti-cancer activity, LK-2
- Type: cell-based, human
- settings: LK-2, lung cancer; read-out: LC50 (the source's name)
Where no end group is shown, it is not given here.
reported_endpoint: CC50

[[record]]
sequence_input = "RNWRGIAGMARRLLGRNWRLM [mast21R]"
observed_value = "> 100 µM"

[[record]]
sequence_input = "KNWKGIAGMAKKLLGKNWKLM [mast21, reference compound]"
observed_value = "> 100 µM"

